Test system: Aerobactin synthetase IucA (Klebsiella pneumoniae hvKP1)
Experiment: Biochemical IucA enzyme inhibition primary screen of the Spectrum library (AID 1346200);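 note: 100% = wells without compound and 0% = wells lacking enzyme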
Settings: malachite green pyrophosphate, A620, at 8 µM, hits give low values
reported.metric: activity remaining (%)
Give the quantity in %, number only.

Consider the reported activity remaining for these compounds:
INSERT INTO assay_data (compound, target, observed) VALUES
  ('CC(C)c1cccc(O)c(=O)c1', 'Aerobactin synthetase IucA (Klebsiella pneumoniae hvKP1)', 123),
  ('NC(=O)c1cc([N+](=O)[O-])cc([N+](=O)[O-])c1', 'Aerobactin synthetase IucA (Klebsiella pneumoniae hvKP1)', 116),
  ('Nc1nc2ncc(CNc3ccc(C(=O)N[C@@H](CCC(=O)O)C(=O)O)cc3)nc2c(=O)[nH]1', 'Aerobactin synthetase IucA (Klebsiella pneumoniae hvKP1)', 91.3);

For reference, reported activity remaining for CC(C)=CCc1c2c(c(O)c3c(=O)c(O)c(-c4ccccc4)oc13)C=CC(C)(C)O2 stands at 110

Lab note: measured activity remaining of NC1(C(=O)O)CC1 was 94.3

Just so you know, measured activity remaining for COc1ccc(/C=C/C(=O)c2cc(O)ccc2O)cc1 came out at 87.4

Entry O=C1NC(=O)C(=O)C(=O)N1 , activity remaining reported as 123

Entry under test: CC1(C)C2CC[C@]3(C)C(C(=O)C=C4[C@H]5C[C@@](C)(C(=O)O)CC[C@]5(C)CC[C@]43C)[C@@]2(C)CC[C@@H]1O (stereo partly drawn) . Its activity remaining was 109

response.value for CC(=O)OCC[N+](C)(C)C (field: activity remaining) = 118

Value of measured activity remaining for the entry COc1ccc2c(c1OC)C(=O)O[C@H]2[C@H]1c2c(cc3c(c2OC)OCO3)CCN1C : 116

Just so you know, measured activity remaining for Oc1ccc(Cl)c2cccnc12 came out at 121

// activity remaining value for CN[C@@H]1[C@H](O)[C@H](NC)[C@H]2O[C@@]3(O)C(=O)C[C@@H](C)O[C@H]3O[C@@H]2[C@H]1O : 108

Lab note: measured activity remaining of CC(=O)O[C@@H]1CC2C(C)(C)[C@H](O)C[C@H](O)[C@]2(C)C2CC[C@@]3(C)C(=CC(=O)O[C@H]3c3ccoc3)[C@@]21C (stereo partly drawn) was 102

activity remaining reading for CCCc1c(OCCCCc2nn[nH]n2)ccc(C(C)=O)c1O : 112

Recorded activity remaining (compound COc1cc(O)c2c(=O)c(O)c(-c3ccc(O)c(O)c3)oc2c1 ): 103

So, CN(C)CCOC(=O)C(c1ccccc1)C1(O)CCCC1 (stereo not drawn) ? Its activity remaining was 115

The measured activity remaining associated with COc1cc2c3cc1Oc1cc(ccc1O)C[C@@H]1c4c(cc(OC)c(O)c4Oc4ccc(cc4)C[C@@H]3N(C)CC2)CC[N+]1(C)C reads 99.6

In plain terms, COc1ccc2cc([C@H](C)CO)ccc2c1 has a documented activity remaining of 118

Entry Cc1cc(O)c(C=O)c2c1C(=O)Oc1c(COC(=O)/C=C/C(=O)O)c(O)c(C(=O)O)c(C)c1O2 ; activity remaining = 93.9

Entry under test: Cc1scc2c1N(C(=O)CN1CCN(C)CC1)c1ccccc1NC2=O . Its activity remaining was 117

So, Cc1onc(-c2ccccc2)c1C(=O)NC1C(=O)N2[C@@H]1SC(C)(C)[C@@H]2C(=O)O (stereo partly drawn) ? Its activity remaining was 106

====

Tested on: Aerobactin synthetase IucA (Klebsiella pneumoniae, hypervirulent)
Assay: IucA enzyme inhibition, biochemical, LOPAC library, absorbance readout (AID 1346212);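 note: 100% = no compound wells and 0% = no enzyme wells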
Details: IucA enzyme assay, absorbance (OD) readout; hits give low values; concentration not given here
Entries and their measured remaining activity follow.
Output spec: scalar in %, unitless text.

Worked cases, answers included:
INSERT INTO results (molecule, reported_metric, observed) VALUES
  ('CCC1(c2ccccc2)C(=O)NCNC1=O', 'remaining activity', 75.1),
  ('O=[N+]([O-])c1ccc(CSc2ncnc3c2ncn3[C@@H]2O[C@H](CO)[C@@H](O)[C@H]2O)cc1', 'remaining activity', 126),
  ('C[N+]1(C)[C@@H]2CC[C@H]1CC(OC(=O)C(CO)c1ccccc1)C2 (stereo partly specified)', 'remaining activity', 93.2),
  ('Cc1nc(N=Nc2ccc(C(=O)O)cc2)c(COP(=O)(O)O)c(C=O)c1O', 'remaining activity', 110),
  ('NCC(O)c1cc(O)c(O)cc1F (stereo unspecified)', 'remaining activity', 110),
  ('CCCCOC(=O)NS(=O)(=O)c1sc(CC(C)C)cc1-c1ccc(Cn2c(CC)nc3c(C)cc(C)nc32)cc1', 'remaining activity', 116),
  ('O=C1NCN(c2ccccc2)C12CCN(CC1COc3ccccc3O1)CC2 (stereo unspecified)', 'remaining activity', 93.6),
  ('O=C(O)[C@@H]1CCN1', 'remaining activity', 122),
  ('COc1[nH]c2ccc(F)cc2c1C(=O)OCC1CCN(CCNS(C)(=O)=O)CC1', 'remaining activity', 124),
  ('CCC1(C2=NCCN2)Cc2ccccc2O1 (stereo unspecified)', 'remaining activity', 82.2);

Kindly note: Aerobactin synthetase IucA (Klebsiella pneumoniae, hypervirulent), CC(C)(C)c1ccc(C(O)CCCN2CCC(C(O)(c3ccccc3)c3ccccc3)CC2)cc1 (stereo unspecified) , remaining activity value reported: 101

Simply: CCCCCCCCCCCCCCCCCCNC(=O)OCC(COP(=O)([O-])OCC[n+]1ccsc1)OC (stereo unspecified) , Aerobactin synthetase IucA (Klebsiella pneumoniae, hypervirulent), remaining activity = 126

====

Overview of reported activity remaining across a group of molecules:
Test system: Aerobactin synthetase IucA (Klebsiella pneumoniae hvKP1)
Experiment: Biochemical IucA enzyme inhibition primary screen of the Spectrum library (AID 1346200);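 note: 100% = wells without compound and 0% = wells lacking enzyme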
Settings: malachite green pyrophosphate, A620, at 8 µM, hits give low values
The reply should contain only the number, in %.

Reference set, count: 4
INSERT INTO measurements (molecule, observed) VALUES
  ('N#C/C(=C\c1cccc(O)c1)C(=O)O', 104),
  ('Cc1ccc(C(=O)c2ccc(CC(=O)O)n2C)cc1', 120),
  ('COc1ccc(C(=O)c2ccccc2)c(O)c1', 116),
  ('O=c1ccc2ccc(O)cc2o1', 94.5);

response.value for COc1c(N2CCNC(C)C2)c(F)cc2c(=O)c(C(=O)O)cn(C3CC3)c12 (stereo unspecified) (field: activity remaining) = 123

Field activity remaining (entry Cc1cccc(Nc2ccccc2C(=O)O)c1C ) reads 111

Measured activity remaining, O=C(O)C1=CC(=C(c2ccc(O)c(C(=O)O)c2)c2ccc(O)c(C(=O)O)c2)C=CC1=O : 101

Reported activity remaining for CC(=O)/C=C\[C@@H]1[C@@]2(C)CCCC(C)(C)C2CC[C@@]1(C)O (stereo partly specified) was 95.5

====

Assay: inhibition of 3D7 malaria parasite growth – strain 3D7 (AID 2306);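 note: 0% = DMSO wells and 100% = chloroquine plus artemisinin control wells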
Settings: P. falciparum 3D7 erythrocytic growth, LDH absorbance, 72 h; at 2 µM; hits give high values
reported.metric: growth inhibition (%)
Report only the number, with the unit % understood.

Solved entries (count: 8):
INSERT INTO results (query_smiles, observed) VALUES
  ('COCC(=O)N(Cc1ccccc1-c1ccc(CNCCc2ccccc2)cc1)C1CCN(Cc2ccccc2)CC1', 94),
  ('COc1cccc(C2(C)CCN(CCCCNC(=O)c3ccc(NC(=O)c4ccc(Cl)cc4)cc3)CC2)c1', 97),
  ('CC(C)CNCc1cccc(-c2ccccc2CN(C(=O)Nc2ccccc2)C2CCN(Cc3ccccc3)CC2)c1', 100),
  ('Cc1cc(N)nc2ccc(CNCCc3ccccc3Br)cc12', 102),
  ('O=C(NCc1ccccc1)c1nn(CCCN2CCC3(CC2)C(=O)NCN3c2ccccc2)cc1-c1ccc(Cl)c(Cl)c1', 88),
  ('O=C(Nc1ccc(CN2CCC(c3c[nH]c4ccc(O)cc34)CC2)cc1)c1ccc(-c2ccccc2)cc1', 100),
  ('c1ccc(C(OCCC2CCN(Cc3cccc4cccnc34)CC2)c2ccccc2)cc1', 99),
  ('N[C@@H](CCN1CCC(c2cccc(O)c2)CC1)Cc1ccc(F)c(F)c1', 92);

The value of growth inhibition measured for the compound CN(c1cc(NC(=O)c2ccc(F)cc2)ccn1)C1CCN(Cc2cccc(C#N)c2)CC1 turned out to be 97

====

Reported inhibition of viability is given for each of the following compounds.
Assay: HCT116 colon cancer cell growth inhibition, primary screen, CellTiter-Glo luminescence, NPC library (AID 1117342)
Conditions: at 20 µM (top of the series)
Activity calls are given as the source filed them.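 The calls were made as follows: active = compounds that lower survival of HCT116 colon cancer cells in the luminescence readout, no numeric limit stated; inactive = the rest.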

INSERT INTO results (compound, reported_metric, observed) VALUES
  ('COc1ccc2c(c1OC)C(=O)O[C@H]2[C@@H]1c2cc3c(cc2CCN1C)OCO3', 'inhibition of viability', '19.8% (inactive)'),
  ('COc1ccc(C(=O)N2CCCC2=O)cc1', 'inhibition of viability', '-1% (inactive)');

Entry under test: COc1ccc(OC)c(C(O)C(C)N)c1 (stereo unspecified) . Its inhibition of viability was -3% (inactive)

// sample CCCCc1ccc(C(=O)O)nc1 , its inhibition of viability was 25.9% (inactive)

O=C(NC(=O)c1c(F)cccc1F)Nc1cc(Cl)c(OC(F)(F)C(F)C(F)(F)F)cc1Cl (stereo unspecified) has a reported inhibition of viability of 35% (inactive)

Please fill in: inhibition of viability reported for O=C1c2ccccc2C(=O)c2ccccc21 = -45% (inactive)
